Assign pIC50 to each entry below.
# assayName: Inhibitory activity against porcine pancreatic trypsin (TRP)
One number for each entry, as −log10 of the molar value.

[
  {
    "molecule": "CC(C)(C(=O)OC(=O)C(C)(C)C(CCc1ccccc1)NC(=O)c1ccccc1)C(CCc1ccccc1)NC(=O)c1ccccc1 (stereo not given)",
    "pIC50": 5.57
  },
  {
    "molecule": "CCCCCC(NC(=O)c1ccccc1)C(C)(C)C(=O)OC(=O)C(C)(C)C(CCCCC)NC(=O)c1ccccc1 (stereo not given)",
    "pIC50": 5.41
  },
  {
    "molecule": "CCCC(=O)NC(CCc1ccccc1)C(C)(C)C(=O)OC(=O)C(C)(C)C(CCc1ccccc1)NC(=O)CCC (stereo not given)",
    "pIC50": 5.92
  },
  {
    "molecule": "CC(C)(C(=O)OC(=O)C(C)(C)C(NC(=O)c1ccc(C#N)cc1)C1CC=CCC1)C(NC(=O)c1ccc(C#N)cc1)C1CC=CCC1 (stereo not given)",
    "pIC50": 5.80
  },
  {
    "molecule": "CCCCCCC(NC(=O)c1ccccc1)C(C)(C)C(=O)OC(=O)C(C)(C)C(CCCCCC)NC(=O)c1ccccc1 (stereo not given)",
    "pIC50": 5.48
  },
  {
    "molecule": "CCC(NC(=O)c1ccccc1)C(C)(C)C(=O)OC(=O)C(C)(C)C(CC)NC(=O)c1ccccc1 (stereo not given)",
    "pIC50": 5.66
  },
  {
    "molecule": "CCCC(NC(=O)c1ccccc1)C(C)(C)C(=O)OC(=O)C(C)(C)C(CCC)NC(=O)c1ccccc1 (stereo not given)",
    "pIC50": 5.06
  },
  {
    "molecule": "CC(C)(CNC(=O)c1ccccc1)C(=O)OC(=O)C(C)(C)CNC(=O)c1ccccc1",
    "pIC50": 6.00
  }
]

Respectfully, I request pIC50 for each entry included below.
1. CCCCC(NC(=O)c1ccccc1)C(C)(C)C(=O)OC(=O)C(C)(C)C(CCCC)NC(=O)c1ccccc1 (stereo not given)
2. CCCCCC(NC(=O)CCC)C(C)(C)C(=O)OC(=O)C(C)(C)C(CCCCC)NC(=O)CCC (stereo not given)

-- reply
5.54
4.74

---

# assayName: Inhibitory activity against porcine pancreatic elastase (PPE)
Assign IC50 to each entry below.
Numbers only, in nM.

[
  {
    "compound": "CC(C)(C(=O)OC(=O)C(C)(C)C(CCc1ccccc1)NC(=O)c1ccccc1)C(CCc1ccccc1)NC(=O)c1ccccc1 (configuration not stated)",
    "scaleUnit": "nM",
    "IC50": 64
  },
  {
    "compound": "CC(C)(C(=O)OC(=O)C(C)(C)C(NC(=O)c1ccc(C#N)cc1)c1ccccc1)C(NC(=O)c1ccc(C#N)cc1)c1ccccc1 (configuration not stated)",
    "scaleUnit": "nM",
    "IC50": 210
  },
  {
    "compound": "CC(C)(CNC(=O)c1ccccc1)C(=O)OC(=O)C(C)(C)CNC(=O)c1ccccc1",
    "scaleUnit": "nM",
    "IC50": 2600
  },
  {
    "compound": "CC(C)(C(=O)OC(=O)C(C)(C)C(NC(=O)c1ccc(C#N)cc1)C1CC=CCC1)C(NC(=O)c1ccc(C#N)cc1)C1CC=CCC1 (configuration not stated)",
    "scaleUnit": "nM",
    "IC50": 180
  },
  {
    "compound": "CCCCCCC(NC(=O)c1ccccc1)C(C)(C)C(=O)OC(=O)C(C)(C)C(CCCCCC)NC(=O)c1ccccc1 (configuration not stated)",
    "scaleUnit": "nM",
    "IC50": 180
  },
  {
    "compound": "CCCCC(NC(=O)c1ccccc1)C(C)(C)C(=O)OC(=O)C(C)(C)C(CCCC)NC(=O)c1ccccc1 (configuration not stated)",
    "scaleUnit": "nM",
    "IC50": 34
  }
]

Respectfully, I request IC50 for each entry included below.
1. CC(C)(C(=O)OC(=O)C(C)(C)C(NC(=O)c1ccc(C#N)cc1)c1ccccc1Cl)C(NC(=O)c1ccc(C#N)cc1)c1ccccc1Cl (configuration not stated)
2. CC(C)(C(=O)OC(=O)C(C)(C)C(CCc1ccccc1)NC(=O)c1ccc(C#N)cc1)C(CCc1ccccc1)NC(=O)c1ccc(C#N)cc1 (configuration not stated)
3. CCCCCC(NC(=O)CCC)C(C)(C)C(=O)OC(=O)C(C)(C)C(CCCCC)NC(=O)CCC (configuration not stated)
4. CCC(NC(=O)c1ccccc1)C(C)(C)C(=O)OC(=O)C(C)(C)C(CC)NC(=O)c1ccccc1 (configuration not stated)
5. Cc1ccccc1C(NC(=O)c1ccc(C#N)cc1)C(C)(C)C(=O)OC(=O)C(C)(C)C(NC(=O)c1ccc(C#N)cc1)c1ccccc1C (configuration not stated)
6. CCCCCC(NC(=O)c1ccccc1)C(C)(C)C(=O)OC(=O)C(C)(C)C(CCCCC)NC(=O)c1ccccc1 (configuration not stated)

-- reply
1100
36
55
210
2100
61

---

# assayName: Inhibitory activity against bovine pancreatic alpha-chymotrypsin (alpha-CT)
pIC50: −log10 of the molar value.
Lab note: anything with pIC50 at or over 7 counts as satisfied; the rest go in not satisfied.

[
  {
    "molecule": "CC(C)(C(=O)OC(=O)C(C)(C)C(NC(=O)c1ccc(C#N)cc1)c1ccccc1Cl)C(NC(=O)c1ccc(C#N)cc1)c1ccccc1Cl (configuration not stated)",
    "classAssignment": "not satisfied"
  }
]

-- ask Identify whether the reported pIC50 of the following molecule is 7 or greater: CCCCCCC(NC(=O)c1ccccc1)C(C)(C)C(=O)OC(=O)C(C)(C)C(CCCCCC)NC(=O)c1ccccc1 (configuration not stated)
-- reply satisfied

-- ask Identify whether the reported pIC50 of the following molecule is 7 or greater: CC(C)(C(=O)OC(=O)C(C)(C)C(NC(=O)c1ccc(C#N)cc1)C1CC=CCC1)C(NC(=O)c1ccc(C#N)cc1)C1CC=CCC1 (configuration not stated)
-- reply not satisfied

-- ask Identify whether the reported pIC50 of the following molecule is 7 or greater: Cc1ccccc1C(NC(=O)c1ccc(C#N)cc1)C(C)(C)C(=O)OC(=O)C(C)(C)C(NC(=O)c1ccc(C#N)cc1)c1ccccc1C (configuration not stated)
-- reply not satisfied

-- ask Identify whether the reported pIC50 of the following molecule is 7 or greater: CCCC(NC(=O)c1ccccc1)C(C)(C)C(=O)OC(=O)C(C)(C)C(CCC)NC(=O)c1ccccc1 (configuration not stated)
-- reply satisfied

-- ask Identify whether the reported pIC50 of the following molecule is 7 or greater: CCCCCC(NC(=O)CCC)C(C)(C)C(=O)OC(=O)C(C)(C)C(CCCCC)NC(=O)CCC (configuration not stated)
-- reply not satisfied

-- ask Identify whether the reported pIC50 of the following molecule is 7 or greater: CC(C)(C(=O)OC(=O)C(C)(C)C(NC(=O)c1ccc(C#N)cc1)c1ccccc1)C(NC(=O)c1ccc(C#N)cc1)c1ccccc1 (configuration not stated)
-- reply satisfied

---

# assayName: Inhibitory activity against porcine pancreatic trypsin (TRP)
readoutKind: IC50 (µM)
Numbers only, in µM.

Answered examples (3):
[
  {
    "compound": "CC(C)(C(=O)OC(=O)C(C)(C)C(NC(=O)c1ccc(C#N)cc1)c1ccccc1)C(NC(=O)c1ccc(C#N)cc1)c1ccccc1 (centres undefined)",
    "IC50, µM": 1.8
  },
  {
    "compound": "CC(C)(C(=O)OC(=O)C(C)(C)C(NC(=O)c1ccc(C#N)cc1)c1ccccc1Cl)C(NC(=O)c1ccc(C#N)cc1)c1ccccc1Cl (centres undefined)",
    "IC50, µM": 8.2
  },
  {
    "compound": "CC(C)(C(=O)OC(=O)C(C)(C)C(CCc1ccccc1)NC(=O)c1ccc(C#N)cc1)C(CCc1ccccc1)NC(=O)c1ccc(C#N)cc1 (centres undefined)",
    "IC50, µM": 0.3
  }
]

Could you now consider this next compound?
In plain terms, Cc1ccccc1C(NC(=O)c1ccc(C#N)cc1)C(C)(C)C(=O)OC(=O)C(C)(C)C(NC(=O)c1ccc(C#N)cc1)c1ccccc1C (centres undefined) has a documented IC50 of 18

---

# assayName: Inhibitory activity against bovine pancreatic alpha-chymotrypsin (alpha-CT)
readoutKind: IC50
Give your result as the value with the unit written after it.

Answered examples (3):
[
  {
    "compound": "CC(C)(CNC(=O)c1ccccc1)C(=O)OC(=O)C(C)(C)CNC(=O)c1ccccc1",
    "readoutKind": "IC50",
    "val": "140 nM"
  },
  {
    "compound": "CCCCCC(NC(=O)c1ccccc1)C(C)(C)C(=O)OC(=O)C(C)(C)C(CCCCC)NC(=O)c1ccccc1 (stereo unspecified)",
    "readoutKind": "IC50",
    "val": "31 nM"
  },
  {
    "compound": "CC(C)(C(=O)OC(=O)C(C)(C)C(CCc1ccccc1)NC(=O)c1ccccc1)C(CCc1ccccc1)NC(=O)c1ccccc1 (stereo unspecified)",
    "readoutKind": "IC50",
    "val": "18 nM"
  }
]

Respectfully, I request IC50 for each entry included below.
1. CCC(NC(=O)c1ccccc1)C(C)(C)C(=O)OC(=O)C(C)(C)C(CC)NC(=O)c1ccccc1 (stereo unspecified)
2. CC(C)(C(=O)OC(=O)C(C)(C)C(CCc1ccccc1)NC(=O)c1ccc(C#N)cc1)C(CCc1ccccc1)NC(=O)c1ccc(C#N)cc1 (stereo unspecified)

-- reply
["72 nM", "2.1 nM"]

In plain terms, CCCCC(NC(=O)c1ccccc1)C(C)(C)C(=O)OC(=O)C(C)(C)C(CCCC)NC(=O)c1ccccc1 (stereo unspecified) has a documented IC50 of 5.3 nM
